Cited source for all entries: ChEMBL document CHEMBL1132220

Bridge positions count the residues as written; N and C are the ends. Square brackets hold non-standard residues; d marks the D form. Peptide text beside a SMILES is read from it. 2Nal = N[C@@H](Cc1ccc2ccccc2c1)C(=O)O; Bta = N[C@@H](Cc1csc2ccccc12)C(=O)O; 3Pal = N[C@@H](Cc1cccnc1)C(=O)O; Tle = CC(C)(C)[C@H](N)C(=O)O
Entries with their measured Ki, system Somatostatin receptor type 2 (Homo sapiens):
# output: bare number, implied unit nM

Input: Data request, read-out Ki, for CC(C)[C@@H]1NC(=O)[C@H](CCCCN)NC(=O)[C@@H](Cc2c[nH]c3ccccc23)NC(=O)[C@H](Cc2csc3ccccc23)NC(=O)[C@H](NC(=O)[C@@H](N)Cc2ccc3ccccc3c2)CSSC[C@@H](C(=O)N[C@@H](Cc2ccc3ccccc3c2)C(N)=O)NC1=O (H-[2Nal][dC][Bta][dW]KVC[2Nal]-NH2; disulfide 2-7)
Output: 418

Input: Could you share which Ki value was measured for CC(C)(C)[C@@H]1NC(=O)[C@H](CCCCN)NC(=O)[C@@H](Cc2c[nH]c3ccccc23)NC(=O)[C@H](Cc2cccnc2)NC(=O)[C@H](NC(=O)[C@@H](N)Cc2ccc3ccccc3c2)CSSC[C@@H](C(=O)N[C@@H](Cc2ccc3ccccc3c2)C(N)=O)NC1=O (H-[2Nal][dC][3Pal][dW]K[Tle]C[2Nal]-NH2; disulfide 2-7) ?
Output: 35

Input: Give its Ki value. Item: CC(C)(C)C[C@@H]1NC(=O)[C@H](CCCCN)NC(=O)[C@@H](Cc2c[nH]c3ccccc23)NC(=O)[C@H](Cc2cccnc2)NC(=O)C(NC(=O)[C@@H](N)Cc2ccc(Cl)cc2)CSSCC(C(=O)N[C@@H](Cc2ccc3ccccc3c2)C(N)=O)NC1=O (stereo in doubt)
Output: 166
